molecular target: HLA-A0203 (Homo sapiens, UniProt P04439, A173T/D140Y/D185E/D98H/E277Q/G131W/G231S/I119V/I121R/I166T/I218V/L180W/L300P/L318F/N151K/N90K/P208A/P217A/Q86G/Q94H/R138H/R169H/T345S); assay: cell-based
Residues, ends and D or L forms follow the SMILES beside them.
Items are presented alongside their recorded IC50.

Request: Give IC50 for the following compound: CC[C@H](C)[C@H](NC(=O)[C@H](Cc1c[nH]c2ccccc12)NC(=O)[C@@H](NC(=O)CNC(=O)[C@H](Cc1ccccc1)NC(=O)[C@H](CO)NC(=O)[C@@H](NC(=O)[C@H](CC(C)C)NC(=O)[C@@H](N)Cc1ccc(O)cc1)C(C)C)C(C)C)C(=O)O [Epitope P11]
Response: < 5 µM

Request: Give IC50 for the following compound: CC[C@H](C)[C@H](NC(=O)[C@H](CC(C)C)NC(=O)[C@@H](N)CCCCN)C(=O)NCC(=O)N[C@H](C(=O)N[C@@H](Cc1c[nH]cn1)C(=O)N[C@@H](CC(N)=O)C(=O)N[C@@H](CO)C(=O)N[C@H](C(=O)O)C(C)C)[C@@H](C)O [Epitope P33] (H-KLIGTHNSV-OH; N-terminus and C-terminus assumed)
Response: > 15 µM

Request: Give IC50 for the following compound: CC[C@H](C)[C@H](NC(=O)[C@H](C)NC(=O)[C@@H](N)CO)C(=O)N[C@@H](CO)C(=O)N[C@@H](CO)C(=O)N[C@H](C(=O)N[C@@H](CO)C(=O)N[C@@H](CO)C(=O)N[C@@H](CCCCN)C(=O)O)[C@@H](C)CC [Epitope P39] (H-SAISSISSK-OH; N-terminus and C-terminus assumed)
Response: > 15 µM

Request: Give IC50 for the following compound: CC(C)C[C@H](NC(=O)[C@@H](N)Cc1ccccc1)C(=O)N1CCC[C@H]1C(=O)N[C@@H](CO)C(=O)N[C@@H](CC(=O)O)C(=O)N[C@@H](Cc1ccccc1)C(=O)N[C@@H](Cc1ccccc1)C(=O)N1CCC[C@H]1C(=O)N[C@@H](CO)C(=O)O [Epitope P67] (H-FLPSDFFPS-OH; N-terminus and C-terminus assumed)
Response: < 5 µM

Request: Give IC50 for the following compound: CC(C)C[C@H](NC(=O)[C@H](CO)NC(=O)[C@H](CC(C)C)NC(=O)[C@@H](N)Cc1c[nH]cn1)C(=O)N[C@@H](CCCNC(=N)N)C(=O)NCC(=O)N[C@@H](CC(C)C)C(=O)N1CCC[C@H]1C(=O)N[C@H](C(=O)O)C(C)C [Epitope P100] (H-HLSLRGLPV-OH; N-terminus and C-terminus assumed)
Response: < 5 µM

Request: Give IC50 for the following compound: CC[C@H](C)[C@H](N)C(=O)N[C@@H](CC(C)C)C(=O)N[C@@H](CO)C(=O)N[C@H](C(=O)N[C@@H](CC(C)C)C(=O)N1CCC[C@H]1C(=O)N[C@@H](CCC(=O)O)C(=O)N[C@H](C(=O)N[C@H](C(=O)N[C@H](C(=O)O)C(C)C)[C@@H](C)O)[C@@H](C)O)[C@@H](C)O [Epitope P96]
Response: < 5 µM

Request: Give IC50 for the following compound: CC(C)C[C@H](NC(=O)[C@H](Cc1ccc(O)cc1)NC(=O)[C@H](CCC(=O)O)NC(=O)[C@H](CC(C)C)NC(=O)[C@@H](NC(=O)[C@@H](NC(=O)[C@@H](N)CCC(=O)O)[C@@H](C)O)C(C)C)C(=O)N[C@H](C(=O)N[C@@H](CO)C(=O)N[C@H](C(=O)O)C(C)C)C(C)C [Epitope P118] (H-ETVLEYLVSV-OH; N-terminus and C-terminus assumed)
Response: > 15 µM

// provenance: paper PMC9021956
